// values below are reported drug sensitivity score
tested on: CAF#5 (primary prostate cancer-associated fibroblasts of myCAF-like type); assay: drug sensitivity score (DSS2, normalised partial AUC of dose-response, 72 h CellTiter-Glo viability) (DSS (dimensionless)); higher = more sensitive (stronger growth inhibition / cytotoxicity); extreme values may be limits of the assay

>>> result("CNC(=O)c1cc(Oc2ccc(NC(=O)Nc3ccc(Cl)c(C(F)(F)F)c3)cc2)ccn1 [Sorafenib] (tested concentration range 0.1-1000 nM)")
0
>>> result("CN(C)C1CCN(C(=O)c2ccc(NC(=O)Nc3ccc(-c4nc(N5CCOCC5)nc(N5CCOCC5)n4)cc3)cc2)CC1 [Gedatolisib] (tested concentration range 0.1-1000 nM)")
9.8

Here is the next item to consider.
INPUT: Record request: drug sensitivity score value, item CCOCc1nc2c(N)nc3ccccc3c2n1CC(C)(C)O [Resiquimod] (tested concentration range 1-10000 nM)
OUTPUT: 0

These entries and their values trace back to the supplement of paper PMC12592484.
